Header: IC50 / Dipeptidyl peptidase 2 (Homo sapiens) / multiple publications
Give the quantity in µM, number only.

>>> quantitative_result("CN(C)C(=O)[C@@H](c1ccc(-c2ccc(F)c(F)c2)cc1)[C@H](N)C(=O)N1CC[C@H](F)C1")
44
>>> quantitative_result("NCCCC[C@H](N)C(=O)N1CCSC1")
2.9
>>> quantitative_result("N[C@@H](CC(=O)N1CCSC1)Cc1ccc(F)cc1F")
56.1
>>> quantitative_result("N[C@H](C(=O)N1CC[C@H](F)C1)[C@@H](C(=O)N1CCC1)c1ccc(-c2ccc(F)cc2)cc1")
5.3

Please find the next compound below.
Lab note: measured IC50 of COc1ccc(NC(=O)O[C@H]2CCC[C@H]([C@H](N)C(=O)N3CCCC3)C2)cc1 was 0.78
